Tested on: porcine lens epithelial (PLE) cells
Experiment: Toxicity of PA and its analogs to PLE cell growth (cell counts, 50% inhibitory concentration)
Type: cell-based
Conditions: Sus scrofa, 120 hours (five days) with substance, treated cell count equal to 50% of control, from FIG. 5, read-out: IC50 mmol/L
Description: FIG. 5. Toxicity of Picolinic Acid and its analogs in Pig Lens Epithelial Cells. Pig lens epithelial cells were plated in quadruplicate in 24 well trays at 5000 cells/well using minimal essential media plus 10% fetal calf serum (10% FCS MEM) with antibiotics. At 24 hours after plating, substances were added with a media change, at appropriate concentrations. […] Cells were then counted, four dishes, in duplicate, and the cell counts were expressed as a percentage of the control cell counts. […]
test.readout: IC50 (mmol/L)
Reply numerically in mmol/L, unit not repeated.

O=C(O)c1ccccn1
0.449
O=C(O)c1cccc(C(=O)O)n1
1.11
CCCCc1ccc(C(=O)O)nc1
0.031

Could you now consider this next compound?
**Q:** Give me measured IC50, please, for this compound: O=C(O)c1cccnc1
**A:** 4.38
